// endpoint IC50 / system Dipeptidyl peptidase 2 (Homo sapiens, UniProt Q9UHL4)
Measured Metric: IC50 (µM)

>>> print(df.to_string())
                                   compound  units_symbol  measured
0  C=CCC1c2nnc(C(F)(F)F)n2CCN1C(=O)C[C@H](N)Cc1cc(F)c(F)cc1F (stereo in doubt; 40a)            µM        33
1  Cl.N[C@@H](CC(=O)N1CCn2c(nnc2C(F)(F)F)[C@H]1Cc1ccc(F)cc1)Cc1cc(F)c(F)cc1F (mixture of isomers)            µM        33

====

Assayed System: Dipeptidyl peptidase 2 (Homo sapiens, UniProt Q9UHL4)
Measured Metric: IC50

>>> print(df.to_string())
                                   compound                            assayed_system  measured_metric  measured
0  CC1c2nnc(C(F)(F)F)n2C(C)CN1C(=O)C[C@H](N)Cc1cc(F)c(F)cc1F (stereo in doubt; 16d)  Dipeptidyl peptidase 2 (Homo sapiens, UniProt Q9UHL4)             IC50  > 100 µM

-- ask Tell me IC50 reported for CC1c2nnc(C(F)(F)F)n2C(C)CN1C(=O)C[C@H](N)Cc1cc(F)c(F)cc1F (stereo in doubt; 16a)
-- reply > 100 µM

-- ask Tell me IC50 reported for C[C@@H]1c2nnc(C(F)(F)F)n2CCN1C(=O)C[C@H](N)Cc1cc(F)c(F)cc1F.Cl
-- reply > 100 µM
